- System: THP-1 cells
- methodSummary: Cell growth inhibition assay (CellTiter-Glo), THP-1
- Type: cell-based, human
- testContext: THP-1, 4 days, total growth inhibition
Kindly state THP-1 TGI for each of the entries shown.
Numbers only; they are read as nM.

Problem: Requested read-out: THP-1 TGI. Entry: Cc1[nH]nc2c1C(=O)N(c1cc(Cl)c(=O)n(C)c1)[C@@H]2c1ccc(Cl)cc1
Solution: 201.5

Problem: What THP-1 TGI value was documented for this compound, Cc1[nH]nc2c1C(=O)N(c1cc(C)c(=O)n(C)c1)[C@@H]2c1ccc(Cl)cc1 ?
Solution: 115

Problem: Param item = Cc1[nH]nc2c1C(=O)N(c1cc(C)c(=O)n(C)c1)C2c1ccc(Cl)cc1 (stereo not shown) ; retrieve measured THP-1 TGI.
Solution: 206

Problem: Endpoint output: THP-1 TGI of Cc1cc(N2C(=O)c3c(C4CC4)n[nH]c3[C@H]2c2ccc(Cl)cc2)cn(C)c1=O . Value?
Solution: 62.25
